These entries and their values trace back to the MegaScale stability set (Tsuboyama et al. 2023).

B1: HHH_rd1_0493 (parent)
chain: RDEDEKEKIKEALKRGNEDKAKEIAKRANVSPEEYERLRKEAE

Variants of: B1
TEST_DETAILS: folding stability dG (cDNA display proteolysis); higher = more stable
CONDITION_PARAMETERS: PBS, room temperature
Note: every record was labeled by where its folding stability dG sits among LOW = under 8 kJ/mol, MID = from 8 kJ/mol up to 10 kJ/mol, HIGH = 10 kJ/mol and over

For orientation, consider the following solved cases.
State the band of RDEDEKEKIGEALKRGNEDKAKEIAKRANVSPEEYERLRKEAE [K10G]
LOW

Category of RDEDEKEKIKEALKRINEDKAKEIAKRANVSPEEYERLRKEAE [G16I] :
LOW

Band assignment needed for RDEDEKEKIKEALKRGNEDKAKEIAKRATVSPEEYERLRKEAE [N29T] please.
LOW

Just checking, what class would you give RDEDEKEKIKEALKRGNEDKAKEIAKRANRSPEEYERLRKEAE [V30R] here?
LOW

New cases:
Assign a category based on measured folding stability dG for RDEDEKEKIKEALKRGNEDKAKEIAKRANVSPEEFERLRKEAE [Y35F] and give only the class name.
HIGH

# classify by folding stability dG band: NDEDEKEKIKEALKRGNEDKAKEIAKRANVSPEEYERLRKEAE [R1N]
HIGH

Pick a category. Item: RDEDEKEKIKEALHRGNEDKAKEIAKRANVSPEEYERLRKEAE [K14H]
MID

Class? Entry: RDEDEKEKIKEALKRGNEDKAKEIAKRMNVSPEEYERLRKEAE [A28M]
HIGH

Which folding stability dG band matches RDEDEKEKIKEALKRGNEDKAKEIAKRHNVSPEEYERLRKEAE [A28H] ?
HIGH

Band for the recorded folding stability dG of RDEDEKEKIKEALKRGNYDKAKEIAKRANVSPEEYERLRKEAE [E18Y] ?
HIGH

Band assignment needed for RDEDEKEKIKEALKRGNEDKAKEIAKRANVSPEEYERLRKEYE [A42Y] please.
MID

Assign a bin to RDEDEKEKIKEALKRGNRDKAKEIAKRANVSPEEYERLRKEAE [E18R]
MID

Returns: class label. Input: RDEDEKEKIKEALKRGNEDKAKTIAKRANVSPEEYERLRKEAE [E23T]
MID

Category lookup for the variant RDEDEKGKIKEALKRGNEDKAKEIAKRANVSPEEYERLRKEAE [E7G]
HIGH

Kindly identify the class of RDEDEKEKIKEALKRGNEDKAKEIAKRANVSPEEEERLRKEAE [Y35E] .
LOW

Just checking, what class would you give RDEDEKEKIKEAGKRGNEDKAKEIAKRANVSPEEYERLRKEAE [L13G] here?
LOW

Bin? RDEDEKEKEKEALKRGNEDKAKEIAKRANVSPEEYERLRKEAE [I9E]
LOW
